// data source = ChEMBL document CHEMBL1201862

Assay: cytotoxicity toward NIH3T3 fibroblasts, dose response, counter-screen, cell-based, ATP luminescence, mouse fibroblasts (AID 2010);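 further: cells exposed to compound for about 90 hours before reading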
Format: functional
Calls of active or inactive are those of the source. No stated cut-off is given here; in the data, actives have a measured EC50 and inactives only a lower limit.

# compound, EC50
rows = [
    ("Cc1ccc(Cl)cc1N=C(S)N(Cc1cccnc1)Cc1ccccc1Cl", "> 60 µM (not active)"),
    ("O=C(CCNC(=O)c1ccccc1Cl)Nc1nc(-c2ccc3ccccc3c2)cs1", "> 60 µM (not active)"),
    ("O=S(=O)(NCC(c1cccnc1)N1CCN(c2ccc(F)cc2)CC1)c1ccccc1 (stereo not drawn)", "> 60 µM (not active)"),
    ("Cc1ccc2c(CN3CCN(Cc4ccccc4)CC3)cc(=O)oc2c1", "> 60 µM (not active)"),
    ("COc1c(C)c2c(c(O)c1C/C=C(\\C)CCC(=O)O)C(=O)OC2 [MYCOPHENOLIC ACID]", "10.9 µM (active)"),
    ("Cc1ccccc1C1C(C#N)=C2N=C(N)c3c(sc4c3CCCCC4)N2C2=C1C(=O)CC(C)(C)C2 (stereo not drawn)", "> 60 µM (inconclusive)"),
    ("COc1cccc2s/c(=N/C(=O)CS(=O)(=O)c3ccc(F)cc3)n(C)c12", "> 60 µM (not active)"),
    ("Cc1ccc(NCc2ccc(C)s2)cc1", "> 60 µM (not active)"),
]
